System: U-251
Test: NCI tumour cell line growth inhibition, 48 h
Active and inactive are the calls of the source. No stated cut-off is given here; in the data, active = GI50 up to about 1.1 µM and inactive = higher.
Possible outcomes: True = active, False = inactive

# molecule, group
rows = [
    ("O=c1c2c([N+](=O)[O-])cccc2nc2[nH]c3ccccc3n12", "False"),
    ("NCCN1C(=O)c2ccccc2C1(O)c1ccc(Cl)cc1 (stereo unspecified)", "False"),
    ("CCCCc1c2c(nc3c1CCCC3O)/C(=C/c1ccccc1)CCC2 (stereo unspecified)", "False"),
    ("CC(C)c1ccc2nc3ccc(C(=O)NCCN(C)C)cn3c(=O)c2c1", "False"),
    ("CC(=O)Nc1cc2ccc(=O)oc2cc1Cl", "False"),
    ("NC(=O)C1=C(O)C[C@@H]2CC3Cc4cccc(O)c4C(=O)C3=C(O)[C@]2(O)C1=O (stereo partly specified)", "True"),
    ("O=c1c(Sc2c(SCSc3cnc4ccccc4c3Sc3c[nH]c4ccccc4c3=O)cnc3ccccc23)c[nH]c2ccccc12", "False"),
    ("CC(=O)Nn1c(=S)[nH]c2ccccc21", "False"),
    ("C/C(=C\\COP(=O)(O)CP(=O)(O)O)CC/C=C(\\C)CNc1ccccc1", "False"),
    ("COc1cccc(N(CN2CC=CC2=O)C(C)=O)c1", "False"),
    ("CCOC(=O)C(=Cc1ccc(Oc2ccccc2)cc1)C(=O)OCC", "False"),
]

----------
Tested on: A549
Assay: NCI tumour cell line growth inhibition, 48 h
The source made the active and inactive calls. Cut-off read from the data, not from the text of the source: active = GI50 up to about 1.1 µM and inactive = higher.

# compound, GI50
measured = [
    ("CC(OC(=O)NCn1cc(-c2ccccc2)nn1)c1ccccc1 (stereo not given)", "35.7 µM (inactive)"),
    ("Clc1cc2ncn(C3CCCO3)c2cc1Cl (stereo not given)", "75.9 µM (inactive)"),
    ("CC1(C)COC(c2cccc(C(=O)c3ccccc3)c2)=N1", "55.2 µM (inactive)"),
    ("C/C(=N/NS(=O)(=O)c1ccc(C)cc1)c1cccc[n+]1[O-]", "> 100 µM (inactive)"),
    ("CC(=O)OC1(C)C(=O)OC1(C)C(C)=O (stereo not given)", "> 100 µM (inactive)"),
    ("COC(=O)CCC(=O)C(CC(=O)OC)C(=O)CCC(=O)NCCc1ccccc1 (stereo not given)", "> 100 µM (inactive)"),
    ("COC(=O)C(=O)C(C(=O)C(=O)Nc1ccccc1OC)c1nc2ccc([N+](=O)[O-])cc2nc1O (stereo not given)", "> 100 µM (inactive)"),
    ("COc1ccc(CCNC(=O)Cc2cc(OC)c(OC)cc2CO)cc1OC", "> 100 µM (inactive)"),
    ("c1ccc2c3nnc(c2c1)SCCSCCSc1nnc(c2ccccc12)SCCSCCS3", "> 100 µM (inactive)"),
    ("C[C@]12CC[C@H]3[C@@H](CCC4=CC(=O)CC[C@@]43C)[C@@H]1CC[C@@H]2OC(=O)c1cccc2c(=O)c3ccccc3[nH]c12", "> 100 µM (inactive)"),
]

----------
Tested on: UO-31
Assay: NCI tumour cell line growth inhibition, 48 h
Calls of active or inactive are those of the source. No stated cut-off is given here; in the data, active = GI50 up to about 1.1 µM and inactive = higher. Where a SMILES comes first, the peptide text is derived from it. [ ]: non-standard residue; d: D form. The star is where a group is joined. NMeF = CN[C@@H](Cc1ccccc1)C(=O)O; NMeV = CN[C@H](C(=O)O)C(C)C; Boc = CC(C)(C)OC(=O)*; OBn = c1ccc(CO*)cc1
Attribute: GI50

# compound, GI50
measured = [
    ("CC1(C)N[PH]2(Nc3ccccc3O2)OC1=O", "96.4 µM (inactive)"),
    ("COc1ccc(/N=N/c2c(C)c(C#N)c(=S)n(C3OC(COC(C)=O)C(OC(C)=O)C(OC(C)=O)C3OC(C)=O)c2C)cc1 (centres undefined)", "> 100 µM (inactive)"),
    ("COc1c(CC=C(C)C)c(O)c(C(CC(C)C)c2c(O)c(C(C)=O)c(O)c3c2OC(C(C)(C)O)C3)c(O)c1C(C)=O (centres undefined)", "4.16 µM (inactive)"),
    ("COC1=CC(=O)c2c(ccc3ncnc(N)c23)C1=O", "2.31 µM (inactive)"),
    ("CSc1c(C#N)c(O)nc(N)c1C(=O)Nc1ccc(Cl)cc1", "11.2 µM (inactive)"),
    ("O=C1NC(=S)N/C1=C\\c1cc2c(=O)c3ccccc3sc2s1", "58.5 µM (inactive)"),
    ("C=CCN1CCC(OC(=O)C(O)(/C=C\\CC)C2CCCC2)CC1 (centres undefined)", "> 100 µM (inactive)"),
    ("CC(=O)c1c(CO[N+](=O)[O-])[n+]([O-])c2ccccc2[n+]1[O-]", "70.6 µM (inactive)"),
    ("CN(C)C(=O)Oc1c(-c2ccccc2)c(=O)n2c3ccccc3n3c(=O)n(C)c(=O)c1c23", "> 100 µM (inactive)"),
    ("O=C1CC[C@@]23CC(=O)O[C@@H]2CCCC3C1 (some centres undefined)", "> 100 µM (inactive)"),
    ("COc1cc(S(=O)(=O)Nc2nc(-c3ccc(N4C(=O)C(CC(=O)O)SC4c4cccs4)cc3)cs2)ccc1Cl (centres undefined)", "19.9 µM (inactive)"),
    ("COC(=O)[C@H](Cc1ccccc1)NC(=O)OCC1OC(n2cc(C)c(=O)[nH]c2=O)CC1N=[N+]=[N-] (some centres undefined)", "> 100 µM (inactive)"),
    ("COC1=CC2(CC(OC)=C1OC)OC21COc2ccccc2C1=O (centres undefined)", "5.16 µM (inactive)"),
    ("COC(=O)CC(C#N)(OP1(=O)OC(c2ccccc2)C(C)N1C)c1ccccc1 (centres undefined)", "12.1 µM (inactive)"),
    ("O=C1CSC(=S)N1", "> 100 µM (inactive)"),
    ("CC(C)(C)OC(=O)CC(NC(=O)OC(C)(C)C)C(=O)Oc1ccc([N+](=O)[O-])cc1 (centres undefined)", "> 100 µM (inactive)"),
    ("CCOC(=O)n1[nH]c(=O)n(-c2ccccc2)c1=O", "> 100 µM (inactive)"),
    ("COC(=O)C1CCC(=O)N1C(c1ccc2c(c1)OCO2)c1ccc2c(c1)OCO2 (centres undefined)", "51.9 µM (inactive)"),
    ("CN1Nc2ccccc2CC1=O", "> 100 µM (inactive)"),
    ("CC(=O)C(=N\\Nc1ccc(Cl)cc1)/C(C)=N/c1ccc(C)cc1", "30.1 µM (inactive)"),
    ("CCOC(=O)C1COc2cc(-c3cc(=O)c4ccccc4o3)ccc2O1 (centres undefined)", "30.5 µM (inactive)"),
    ("Cc1ccc(NC(=O)C(=O)CC(=O)c2sc(Nc3c(C)cccc3C)nc2C)cc1C", "81.8 µM (inactive)"),
    ("CC(=O)NCCCCNCCCNC(C)=O", "> 100 µM (inactive)"),
    ("COC(=O)CCC(=O)Nc1cc(Cl)ccc1Cl", "> 100 µM (inactive)"),
    ("COc1ccc(C(=C2C(=O)OC(=O)C2=C(C)C)c2ccc(OC)cc2)cc1", "> 100 µM (inactive)"),
    ("COc1cc2ccnc(-c3c4ccccc4c(N)c4c(OC)c(OC)ccc34)c2cc1OC", "3.18 µM (inactive)"),
    ("CC1c2c(Cl)nc3ccccc3c2Oc2c1c(Cl)nc1ccccc21", "65 µM (inactive)"),
    ("COC(=O)C(=O)C(C(=O)C(=O)Nc1ccc(Cl)cc1C)c1nc2ccc(C(=O)c3ccccc3)cc2nc1O (centres undefined)", "49.1 µM (inactive)"),
    ("CCC(C#N)(c1ccccc1)N(CCc1ccccc1)C(=O)c1ccccc1 (centres undefined)", "64.3 µM (inactive)"),
    ("N=C(CC(=O)Nc1ccc(Cl)cc1)Nc1ccccc1", "> 100 µM (inactive)"),
    ("COc1cc(C2c3cccc4cccc(c34)C3CCC(=O)N32)cc(O)c1O (centres undefined)", "28.8 µM (inactive)"),
    ("CCOC(=O)Cn1c(=O)c2cc(-c3ccccc3)cc3c(Cl)nc4c(OC)c(OC)cc1c4c32", "2.07 µM (inactive)"),
    ("O=C(CC(=O)c1ccccc1NC1=Cc2ccccc2C(=O)C1=O)C(=O)NC1=C(Cl)C(=O)c2ccccc2C1=O", "6.89 µM (inactive)"),
    ("CCCCCCCCCCCCCCCCCCNc1nc(=O)n(C2CC(O)C(COP(=O)(O)OCC(COP(=O)(O)OC3C(CO)OC(n4ccc(N)nc4=O)C3O)OCCCCCCCCCCCCCCCCCC)O2)cc1F (centres undefined)", "28.8 µM (inactive)"),
    ("CC(C)[C@@H](C(=O)N1CCC[C@H]1C(=O)OCc1ccccc1)N(C)C(=O)[C@H](C(C)C)N(C)C(=O)[C@H](Cc1ccccc1)N(C)C(=O)[C@H](NC(=O)OC(C)(C)C)C(C)C (Boc-[dV][NMeF][NMeV][NMeV]P-OBn)", "> 50 µM (inactive)"),
    ("COc1cc2nc(-c3cccs3)nc(N3CCN(c4ccccc4C(F)(F)F)CC3)c2cc1OC", "> 100 µM (inactive)"),
    ("CC(=O)OC12c3ccccc3-c3ccccc3C1C(C(=O)O)C2(Cl)C(=O)O (centres undefined)", "> 10 µM (inactive)"),
    ("CCCCC1NC=Nc2c1ccc1c2[nH]c2ccccc21 (centres undefined)", "10.3 µM (inactive)"),
    ("C/C(=N/NS(=O)(=O)c1ccc(C)cc1)c1cccc[n+]1[O-]", "> 100 µM (inactive)"),
]
